Tested on: NCI-H322M lung
method_description: NCI-60 one-dose screen, 48 h (100 = growth as untreated, 0 = no growth, -100 = all killed)
experimental_context: 10 µM unless noted
This is part of a sample that, as a whole, favours compounds with a hit. Of some 83,000 tested, about 20% had one in any assay.
So basically: growth at 90% or higher? That is YES. Lower than 90%? That is NO.

See these solved cases before continuing.
INSERT INTO assay_data (compound, assigned_label) VALUES
  ('CC1(C)CC[C@]2(C(=O)NCC#CCN3CCOCC3)CC[C@]3(C)C(=CC[C@@H]4[C@@]5(C)Cc6c([nH]c7ccccc67)C(C)(C)[C@@H]5CC[C@]43C)[C@@H]2C1', 'YES'),
  ('C/C(=C(/c1ccccc1)c1ccc(OCC(O)CN2CCOCC2)cc1)c1ccccc1 (stereo not given)', 'YES'),
  ('COc1ccc(C(=O)c2cc3c(N)c(C(=O)Nc4cccc(Cl)c4C)sc3nc2C)cc1', 'NO'),
  ('COc1ccc(-c2nn(Cc3ccccc3)c3c2-c2oncc2CC3)cc1OC', 'YES');

Query: Given the entry "CC(=O)O[C@]1(C(C)=O)CC[C@H]2[C@@H]3C=C(Cl)C4=CC(=O)CC[C@]4(C)[C@H]3CC[C@@]21C" , answer whether its growth meets or surpasses 90%.
Reply: YES

Query: // next record CCC(C)C(N)C(=O)NNc1n[nH]c(=S)n1N (stereo not given)
Reply: YES

Query: // next record CN1C(=O)N(C)C2NC(N/N=C/c3ccccc3)=NC21 (stereo not given)
Reply: YES

Query: // next record Fc1ccc(C2CC(c3cccc(Nc4ccncc4)c3)=NN2c2ccc(Cl)cc2)cc1 (stereo not given)
Reply: NO

Query: // next record "COc1cccc2c1C(=O)c1c(O)c3c(c(O)c1C2=O)C[C@@](O)(C(=O)CO)C[C@@H]3O[C@H]1C[C@H](N)[C@@H](O)[C@H](C)O1"
Reply: NO

Query: // next record "O=C(N=Nc1c(O)[nH]c2ccc(F)cc12)c1cc2ccccc2[nH]1"
Reply: YES

Query: // next record "CN1CCN(CCCNc2nccc(-c3c(-c4ccc(F)c(O)c4)nc4sccn34)n2)S1(=O)=O"
Reply: YES

Query: // next record O=C1CCCCCCCCC(O)C(O)CCCC(c2cccs2)O1 (stereo not given)
Reply: YES

Query: // next record "O=C(O)c1cn(C2CC2)c2cc(N3CCN(C(=O)C[n+]4cccc5ccccc54)CC3)c(F)cc2c1=O"
Reply: YES

Query: // next record "FC(F)(F)c1cccc(Oc2ccc(Nc3ncnc4ccc(OCCCN5CCOCC5)cc34)cc2Cl)c1"
Reply: NO

Query: // next record OC(c1ccccc1)c1ccccn1 (stereo not given)
Reply: YES

Query: // next record "CNC(=O)c1c(NC(=O)c2ccc(C(C)C)cc2)sc2c(CN(C)C)c(O)ccc12"
Reply: YES

Value source: PubChem BioAssay (NCI)
